Tested on: panel of cancer cell lines
Experiment: Cell viability (CellTiter-Glo) dose-response across cancer cell line panel;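 note: after 72 h compound incubation with CellTiter-Glo ATP readout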
Type: cell-based, human
Conditions: Homo sapiens, KMRC-20
Measured EC50 values are reported for all entries that follow.
reported property: EC50

[
  {
    "smiles structure": "NS(=O)(=O)OC[C@@H]1C[C@@H](n2ccc3c(N[C@H]4CCc5ccccc54)ncnc32)C[C@@H]1O",
    "reported property": "EC50",
    "val": "1.52 µM"
  },
  {
    "smiles structure": "CC(C)C[C@H](NC(=O)[C@H](Cc1ccccc1)NC(=O)c1cnccn1)B(O)O",
    "reported property": "EC50",
    "val": "0.0101 µM"
  },
  {
    "smiles structure": "COCc1ccccc1NCc1ccc([C@H]2[C@@H](O)CCCc3cncn32)c(-c2ccccc2Cl)c1",
    "reported property": "EC50",
    "val": "0.788 µM"
  }
]
